Tested on: NCI/ADR-RES
assay_notes: NCI tumour cell line growth inhibition, 48 h
The source made the active and inactive calls. Rule as the data show it: active = GI50 up to about 1.1 µM and inactive = higher.
Classes used: active, inactive

• Cc1cc(S(=O)(=O)NC2=Nc3ccc(Cl)cc3C(c3ccccc3)N2)c(S)cc1Cl (stereo not given) = inactive
• COc1nn(Cc2ccccn2)c2ccc([N+](=O)[O-])cc12 = inactive
• O=C(Nc1ccc2c(c1)oc(=O)c1ccccc12)C(Cl)Cl = inactive
• O=C1Oc2ccccc2N/C1=C/C(=O)c1ccc([N+](=O)[O-])cc1 = inactive
• O=C1NN=C2C=C(c3ccc(Cl)cc3)CC(c3cccc(Cl)c3)C12 (stereo not given) = inactive
• COc1cc([C@@]23OC[C@@H]4[C@@H](OC[C@@H]42)c2cc4c(cc23)OCO4)cc(OC)c1OC = active
• C=C1C(=O)O[C@H]2C3OC3(C)CC/C=C(/C(=O)OC)[C@@H](OC(C)=O)[C@H](OC(=O)C3(C)OC3C)[C@H]12 (stereo not given in full) = inactive
• Fc1c(F)c(F)c2c(c1F)CSc1nc3ccccc3n1-2 = inactive
• O=S(=O)(O)c1cc(S(=O)(=O)O)c2c(/N=N/c3ccccc3)c(O)ccc2c1 = inactive
• O/N=C1/COC(C(F)(F)F)(C(F)(F)F)C1 = inactive
